- Study target: Xanthine dehydrogenase/oxidase (Homo sapiens, UniProt P47989)
- Sequence (P47989 whole entry): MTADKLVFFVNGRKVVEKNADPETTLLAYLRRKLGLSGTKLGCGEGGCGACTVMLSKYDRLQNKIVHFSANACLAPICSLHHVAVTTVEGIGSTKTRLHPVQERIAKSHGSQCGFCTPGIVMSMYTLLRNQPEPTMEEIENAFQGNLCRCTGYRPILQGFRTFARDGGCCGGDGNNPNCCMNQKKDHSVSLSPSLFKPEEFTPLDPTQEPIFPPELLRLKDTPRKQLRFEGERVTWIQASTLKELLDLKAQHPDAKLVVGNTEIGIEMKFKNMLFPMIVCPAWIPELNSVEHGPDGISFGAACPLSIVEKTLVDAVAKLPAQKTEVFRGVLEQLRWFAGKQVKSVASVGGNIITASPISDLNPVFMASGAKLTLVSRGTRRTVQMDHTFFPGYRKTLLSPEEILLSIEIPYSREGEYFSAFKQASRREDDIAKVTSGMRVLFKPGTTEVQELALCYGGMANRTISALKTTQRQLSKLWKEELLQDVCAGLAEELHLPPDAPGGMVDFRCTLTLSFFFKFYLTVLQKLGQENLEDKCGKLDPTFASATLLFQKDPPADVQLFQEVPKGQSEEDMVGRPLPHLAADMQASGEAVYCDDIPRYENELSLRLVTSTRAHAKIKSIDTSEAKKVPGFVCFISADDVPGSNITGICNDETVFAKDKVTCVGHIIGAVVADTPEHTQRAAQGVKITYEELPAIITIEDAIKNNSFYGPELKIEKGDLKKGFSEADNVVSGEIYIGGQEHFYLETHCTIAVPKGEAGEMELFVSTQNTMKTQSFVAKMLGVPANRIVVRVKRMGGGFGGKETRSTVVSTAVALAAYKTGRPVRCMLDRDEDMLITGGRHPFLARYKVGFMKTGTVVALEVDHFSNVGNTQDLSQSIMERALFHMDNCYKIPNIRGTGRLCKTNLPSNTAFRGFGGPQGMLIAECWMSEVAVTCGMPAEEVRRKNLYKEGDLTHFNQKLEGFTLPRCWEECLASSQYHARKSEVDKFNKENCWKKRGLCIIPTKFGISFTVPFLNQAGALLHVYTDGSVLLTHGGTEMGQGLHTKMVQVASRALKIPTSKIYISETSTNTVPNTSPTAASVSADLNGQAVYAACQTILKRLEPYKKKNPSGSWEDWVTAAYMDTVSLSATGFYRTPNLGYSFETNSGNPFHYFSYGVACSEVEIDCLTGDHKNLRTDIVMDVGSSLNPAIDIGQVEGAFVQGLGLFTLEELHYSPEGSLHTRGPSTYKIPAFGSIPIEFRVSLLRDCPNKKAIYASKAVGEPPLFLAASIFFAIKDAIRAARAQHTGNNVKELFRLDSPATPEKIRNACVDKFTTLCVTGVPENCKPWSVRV
- Test protocol: Inhibition of xanthine oxidase (unknown origin) assessed as superoxide generation measured for 20 mins by luminescence analysis using 50 uM xanthine as a substrate
- Condition context: read-out: IC50
Value type: IC50

CN(C)CCCn1c(=S)[nH]c2ccc(Cl)cc2c1=O.Cl 15 µM
CN(C)CCCn1c(=S)[nH]c2ccccc2c1=O 20 µM
CN(C)CCCCCCn1c(=S)[nH]c2ccc(F)cc2c1=O 18 µM
CN(C)CCCn1c(=S)[nH]c2cc(Cl)ccc2c1=O 4 µM

As a next step, examine the compound that follows.
**Query** Which IC50 is reported for this compound? `CC(C)n1c(=S)[nH]c2cc3c(cc2c1=O)OCCO3`
**Result** 4.5 µM

---

Task for the reader: assign each of the following compounds its reported IC50.
- Study target: Myeloperoxidase (Homo sapiens)
- Test protocol: Inhibition of human recombinant myeloperoxidase by amplex red assay
- Condition context: read-out: IC50
Numbers only, in nM.

Go through the list and state IC50 for each entry.
1. O=C(Nn1c(=S)[nH]c2cc3c(cc2c1=O)OCCO3)c1ccc(C(F)(F)F)cc1
2. CN(C)CCCn1c(=S)[nH]c2cc(Cl)ccc2c1=O
3. CN(C)CCCn1c(=S)[nH]c2ccc(F)cc2c1=O.Cl
4. CN(C)CCCn1c(=S)[nH]c2ccc(Cl)cc2c1=O.Cl

**Result**
300
8000
600
800

---

- Study target: UniProt:P05164
- Sequence (P05164 whole entry): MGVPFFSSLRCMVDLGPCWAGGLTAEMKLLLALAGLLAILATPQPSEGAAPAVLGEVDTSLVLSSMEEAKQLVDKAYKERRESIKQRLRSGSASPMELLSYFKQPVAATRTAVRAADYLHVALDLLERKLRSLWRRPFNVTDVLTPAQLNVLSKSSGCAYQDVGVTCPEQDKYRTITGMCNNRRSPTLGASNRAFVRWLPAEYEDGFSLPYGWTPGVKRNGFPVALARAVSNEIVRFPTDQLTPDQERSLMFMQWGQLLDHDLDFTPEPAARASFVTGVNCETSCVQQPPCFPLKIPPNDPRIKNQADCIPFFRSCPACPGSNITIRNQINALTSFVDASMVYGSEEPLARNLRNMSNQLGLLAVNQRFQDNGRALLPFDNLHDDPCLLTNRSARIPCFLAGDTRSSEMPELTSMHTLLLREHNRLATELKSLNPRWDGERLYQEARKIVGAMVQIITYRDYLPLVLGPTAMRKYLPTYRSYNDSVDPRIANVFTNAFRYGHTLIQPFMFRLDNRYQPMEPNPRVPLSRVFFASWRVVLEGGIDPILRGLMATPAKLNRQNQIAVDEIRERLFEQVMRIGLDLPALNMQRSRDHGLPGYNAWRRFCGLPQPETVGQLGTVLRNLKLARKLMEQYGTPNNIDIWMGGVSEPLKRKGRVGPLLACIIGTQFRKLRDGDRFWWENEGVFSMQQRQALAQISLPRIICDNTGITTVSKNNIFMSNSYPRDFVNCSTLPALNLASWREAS
- Test protocol: Inhibition of human recombinant myeloperoxidase by amplex red assay
- Condition context: read-out: IC50
Value type: IC50

CN(C)CCCCn1c(=O)[nH]c2ccccc2c1=O 10000 nM
CN1CCN(CCCn2c(=S)[nH]c3ccccc3c2=O)CC1 1400 nM
CN(C)CCCn1c(=S)[nH]c2c(Cl)cc(Cl)cc2c1=O > 20000 nM
CCn1c(=S)[nH]c2ccc(F)cc2c1=O 15000 nM
CN(C)CCCCCn1c(=O)[nH]c2ccccc2c1=O 10000 nM

// for each compound below, give its IC50
1. CN(C)CCCn1c(=S)[nH]c2cc(F)c(F)cc2c1=O.Cl
2. CC(C)n1c(=S)[nH]c2cc3c(cc2c1=O)OCCO3
3. CN(C)CCCCCCn1c(=S)[nH]c2ccc(F)cc2c1=O
4. CCN(CC)CCn1c(=S)[nH]c2ccccc2c1=O
5. CN(C)CCCn1c(=S)[nH]c2ccccc2c1=O
6. CN(C)CCn1c(=S)[nH]c2ccccc2c1=O
7. O=c1c2ccccc2[nH]c(=S)n1CCN1CCCCC1

**Result**
1. 1200 nM
2. > 20000 nM
3. > 20000 nM
4. 1600 nM
5. 1300 nM
6. 1700 nM
7. 400 nM

// data source = ChEMBL document CHEMBL3739290
